Could you please report measured chromatographic logP for the items listed next?
- Assay Overview: logP (HPLC)
- Type: physicochemical
- Test Conditions: first of two values printed (x/y)
Just the number, please, no unit after it.

Q. What value of chromatographic logP has been reported for the following molecule? COc1ccc(CCNC(=O)C(=NOC(=O)c2ccccc2)c2ccc3c(c2)CCCC3)cc1OC
A. 3.69

Q. Can you check CCc1ccc(C(=NOC(=O)OC)C(=O)NCCc2ccc(OC)c(OC)c2)cc1 next?
A. 2.73

Q. Can you check CCc1ccc(C(=NOC(C)=O)C(=O)NCCc2ccc(OC)c(OC)c2)cc1 next?
A. 2.42

Q. Can you check CCON=C(C(=S)NCCc1ccc(OC)c(OC)c1)c1ccc2c(c1)CCCC2 next?
A. 4.13

Q. Can you check COC(=O)ON=C(C(=O)NCCc1ccc(OC)c(OC)c1)c1ccc2c(c1)CCC2 next?
A. 2.78

Q. Can you check CCON=C(C(=S)NCCc1ccc(OC)c(OC)c1)c1ccc2c(c1)CCC2 next?
A. 3.87

Q. Can you check COc1ccc(CCNC(=O)C(=NOC(=O)Oc2ccccc2)c2ccc3c(c2)CCCC3)cc1OC next?
A. 3.82

Q. Can you check CCOC(=O)ON=C(C(=O)NCCc1ccc(OC)c(OC)c1)c1ccc2c(c1)CCCC2 next?
A. 3.19

Q. Can you check COc1ccc(CCNC(=O)C(=NOC(C)=O)c2ccc3c(c2)CCC3)cc1OC next?
A. 2.65

Q. Can you check CON=C(C(=O)NCCc1ccc(OC)c(OC)c1)c1ccc2c(c1)OCC2 next?
A. 2.24

Q. Can you check CON=C(C(=S)NCCc1ccc(OC)c(OC)c1)c1ccc(C)cc1 next?
A. 3.15

Q. Can you check CCc1ccc(C(=NOC)C(=S)NCCc2ccc(OC)c(OC)c2)cc1 next?
A. 3.5

Q. Can you check COc1ccc(CCNC(=O)C(=NOC(=O)OC2CCCCC2)c2ccc3c(c2)CCCC3)cc1OC next?
A. 4.2

Q. Can you check CCON=C(C(=S)NCCc1ccc(OC)c(OC)c1)c1ccc(Br)cc1 next?
A. 3.82

Q. Can you check CCON=C(C(=S)NCCc1ccc(OC)c(OC)c1)c1cccc(CC)c1 next?
A. 3.82

Q. Can you check CON=C(C(=S)NCCc1ccc(OC)c(OC)c1)c1ccc(Br)cc1 next?
A. 3.5

Q. Can you check CON=C(C(=O)NCCc1ccc(OC)c(OC)c1)c1ccc2c(c1)CCc1ccccc1C2 next?
A. 3.61

Q. Can you check CCOC(=O)ON=C(C(=O)NCCc1ccc(OC)c(OC)c1)c1ccc2c(c1)CCC2 next?
A. 3.04

###

- Assay Overview: logP (HPLC)
- Type: physicochemical
- Test Conditions: e isomer
Property Label: chromatographic logP

Q. What value of chromatographic logP has been reported for the following compound? CCON=C(C(=O)NCCc1ccc(OC)c(OC)c1)c1ccc(Cl)cc1
A. 3.07

Q. Can you check CCON=C(C(=S)NCCc1ccc(OC)c(OC)c1)c1ccc(Cl)cc1 next?
A. 3.73

Q. Can you check CCON=C(C(=O)NCCc1ccc(OC)c(OC)c1)c1ccc2c(c1)Cc1ccccc1C2 next?
A. 3.62

###

- Assay Overview: logP (HPLC)
- Format: physicochemical
- Test Conditions: first of two values printed (x/y)
Property Label: chromatographic logP
Just the number, please, no unit after it.

Q. What value of chromatographic logP has been reported for the following compound? CON=C(C(=O)NCCc1ccc(OC)c(OC)c1)c1ccc2c(c1)Cc1ccccc1C2 [IV-4]
A. 3.31

Q. Can you check CCON=C(C(=O)NCCc1ccc(OC)c(OC)c1)c1ccc2c(c1)CCc1ccccc1C2 [IV-3] next?
A. 3.91

Q. Can you check COc1ccc(CCNC(=O)C(=NOC(=O)OC(C)C)c2ccc3c(c2)CCCC3)cc1OC [Example I-4] next?
A. 3.55

###

- Assay Overview: logP (HPLC)
- Type: physicochemical
- Test Conditions: single value given
Could you please report measured chromatographic logP for the items listed next?

Q. What value of chromatographic logP has been reported for the following compound? CCOC(=O)ON=C(C(=O)NCCc1ccc(OC)c(OC)c1)c1ccc(Br)cc1
A. 3.19

Q. Can you check CCOC(=O)ON=C(C(=O)NCCc1ccc(OC)c(OC)c1)c1ccc(CC)cc1 next?
A. 2.98

###

- Assay Overview: logP (HPLC)
- Format: physicochemical
- Test Conditions: second of two values
Note: every record was labeled by where its chromatographic logP sits among bin 1 (below 3), bin 2 (3 to below 4), bin 3 (4 or more)

Q. Which category does the recorded chromatographic logP put COc1ccc(CCNC(=O)C(=NOC(C)=O)c2ccc3c(c2)CCC3)cc1OC [Example I-12] in?
A. bin 1

Q. Can you check CCON=C(C(=O)NCCc1ccc(OC)c(OC)c1)c1ccc2c(c1)CCc1ccccc1C2 [IV-3] next?
A. bin 3

Q. Can you check CON=C(C(=O)NCCc1ccc(OC)c(OC)c1)c1ccc2c(c1)CCc1ccccc1C2 [IV-2] next?
A. bin 2

Q. Can you check CCON=C(C(=S)NCCc1ccc(OC)c(OC)c1)c1ccc2c(c1)CCC2 [II-10] next?
A. bin 3

Q. Can you check CON=C(C(=S)NCCc1ccc(OC)c(OC)c1)c1ccc(C)cc1 [II-3] next?
A. bin 2

Q. Can you check CON=C(C(=O)NCCc1ccc(OC)c(OC)c1)c1ccc2c(c1)Cc1ccccc1C2 [IV-4] next?
A. bin 2

Q. Can you check CCc1ccc(C(=NOC)C(=S)NCCc2ccc(OC)c(OC)c2)cc1 [II-4] next?
A. bin 2

Q. Can you check CON=C(C(=O)NCCc1ccc(OC)c(OC)c1)c1ccc2c(c1)OCC2 [III-2] next?
A. bin 1

Q. Can you check CCc1ccc(C(=NOC(C)=O)C(=O)NCCc2ccc(OC)c(OC)c2)cc1 [Example I-16] next?
A. bin 1

Q. Can you check CCON=C(C(=S)NCCc1ccc(OC)c(OC)c1)c1ccc(Br)cc1 [II-5] next?
A. bin 3

Q. Can you check CCON=C(C(=S)NCCc1ccc(OC)c(OC)c1)c1ccc2c(c1)CCCC2 [II-2] next?
A. bin 3

Q. Can you check COc1ccc(CCNC(=O)C(=NOC(=O)OC2CCCCC2)c2ccc3c(c2)CCCC3)cc1OC [Example I-6] next?
A. bin 3

Q. Can you check CCOC(=O)ON=C(C(=O)NCCc1ccc(OC)c(OC)c1)c1ccc2c(c1)CCC2 [Example I-13] next?
A. bin 2

Q. Can you check CCOC(=O)ON=C(C(=O)NCCc1ccc(OC)c(OC)c1)c1ccc2c(c1)CCCC2 [Example I-3] next?
A. bin 2

Q. Can you check COc1ccc(CCNC(=O)C(=NOC(=O)OC(C)C)c2ccc3c(c2)CCCC3)cc1OC [Example I-4] next?
A. bin 2

Q. Can you check CON=C(C(=S)NCCc1ccc(OC)c(OC)c1)c1ccc(Br)cc1 [II-6] next?
A. bin 2

###

- Assay Overview: logP (HPLC)
- Type: physicochemical
- Test Conditions: second of two values
Could you please report measured chromatographic logP for the items listed next?
Just the number, please, no unit after it.

Q. What value of chromatographic logP has been reported for the following molecule? CCc1ccc(C(=NOC(=O)OC)C(=O)NCCc2ccc(OC)c(OC)c2)cc1 [Example I-14]
A. 2.94

Q. Can you check CCON=C(C(=S)NCCc1ccc(OC)c(OC)c1)c1cccc(CC)c1 [II-8] next?
A. 4.09

Q. Can you check COc1ccc(CCNC(=O)C(=NOC(=O)c2ccccc2)c2ccc3c(c2)CCCC3)cc1OC [Example I-7] next?
A. 4.1

Q. Can you check COC(=O)ON=C(C(=O)NCCc1ccc(OC)c(OC)c1)c1ccc2c(c1)CCC2 [Example I-11] next?
A. 2.97

Q. Can you check COc1ccc(CCNC(=O)C(=NOC(=O)Oc2ccccc2)c2ccc3c(c2)CCCC3)cc1OC [Example I-5] next?
A. 4.09
